// data source = the Human Domainome abundance scans (Beltran et al. 2025)

In this section, each of the variants is paired with its reported abundance fitness.
B1: FERM and PDZ domain-containing protein 4, residues 75 to 154; numbered along this chain, Q14CM0 (parent)
chain: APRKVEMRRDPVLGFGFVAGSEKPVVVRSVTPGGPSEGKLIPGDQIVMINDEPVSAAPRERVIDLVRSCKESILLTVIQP

- Variants of: B1
- assay.comment: abundance fitness (aPCA) (normalised: wild type 0, dead -1); higher = more abundant; growth selection in yeast, the domain comes from the species named
- condition.info: Homo sapiens
observed.property: abundance fitness

>>> experimental_result("D10E")
-0.27
>>> experimental_result("S72Y")
-0.129
>>> experimental_result("P80W")
-0.403
>>> experimental_result("I41L")
0.024
